Below: a set of entries, each annotated with reported PT.
# Organism: Rattus norvegicus
# Experiment: Open TG-GATES - Regimen: Single
# Format: toxicity, organism-based, Sprague-Dawley
# Parameters: regimen Single, gender Male, age 6 weeks
# Condition: in vivo, po, 0 mg/kg, 9 h, tissue Blood, route gavage, dose level Control
Quantity: PT (s)

>>> meas_value("NNC(=O)c1ccncc1")
12.5
>>> meas_value("CC1=C(/C=C/C(C)=C/C=C/C(C)=C/CO)C(C)(C)CCC1")
15.8
>>> meas_value("NC(N)=Nc1nc(CSCCC(N)=NS(N)(=O)=O)cs1")
12.7
>>> meas_value("COC1=CC(=O)C[C@@H](C)[C@]12Oc1c(Cl)c(OC)cc(OC)c1C2=O")
12.9
>>> meas_value("CCOC(=O)CCC(=O)O[C@H]1[C@H](O[C@@H]2[C@@H](C)[C@H](O[C@H]3C[C@@](C)(OC)[C@@H](O)[C@H](C)O3)[C@@H](C)C(=O)O[C@H](CC)[C@@](C)(O)[C@H](O)[C@@H](C)C(=O)[C@H](C)C[C@@]2(C)O)O[C@H](C)C[C@@H]1N(C)C [ERYTHROMYCIN ETHYLSUCCINATE]")
15.9
>>> meas_value("CN(C)CCN(Cc1cccs1)c1ccccn1")
15.6
>>> meas_value("CCCNC(=O)NS(=O)(=O)c1ccc(Cl)cc1 [CHLORPROPAMIDE]")
15.4
>>> meas_value("CCOc1ccc(NC(=O)CC(C)O)cc1 (stereo not given)")
14.3
>>> meas_value("Cc1ccc(C)c(OCCCC(C)(C)C(=O)O)c1")
12.3
>>> meas_value("COc1ccc2[nH]c([S+]([O-])Cc3ncc(C)c(OC)c3C)nc2c1 (stereo not given)")
13.1
>>> meas_value("COc1cc2c(c(OC)c1OC)-c1ccc(OC)c(=O)cc1[C@@H](NC(C)=O)CC2")
12.1
>>> meas_value("CC/C(=C(\\c1ccccc1)c1ccc(OCCN(C)C)cc1)c1ccccc1")
12.2
>>> meas_value("CN(C)CCCN1c2ccccc2CCc2ccccc21")
15.3
>>> meas_value("CN1C(=O)CN=C(c2ccccc2)c2cc(Cl)ccc21")
12.7
>>> meas_value("CN(C)CCCN1c2ccccc2CCc2ccc(Cl)cc21")
14
